# credit: paper PMC9213889

Each item that follows carries a reported melting point.
Parameter: melting point

- CC1(C)CC[C@]2(C(=O)O)CC[C@]3(C)C(=CCC4[C@@]5(C)C/C(=C\c6ccccc6F)[C@H](O)C(C)(C)C5CC[C@]43C)C2C1 (stereo partly drawn) [Compound 4h]: 165 to 166 °C
- CC1(C)CC[C@]2(C(=O)O)CC[C@]3(C)C(=CCC4[C@@]5(C)C/C(=C\c6cccc(Cl)c6)[C@H](O)C(C)(C)C5CC[C@]43C)C2C1 (stereo partly drawn) [Compound 4l]: 242 to 243 °C
- CC1(C)CC[C@]2(C(=O)O)CC[C@]3(C)C(=CCC4[C@@]5(C)C/C(=C\c6ccc([N+](=O)[O-])cc6)[C@H](O)C(C)(C)C5CC[C@]43C)C2C1 (stereo partly drawn) [Compound 4s]: 219 to 220 °C
- CC1(C)CC[C@]2(C(=O)O)CC[C@]3(C)C(=CCC4[C@@]5(C)C/C(=C\c6cccc([N+](=O)[O-])c6)[C@H](O)C(C)(C)C5CC[C@]43C)C2C1 (stereo partly drawn) [Compound 4r]: 191 to 192 °C
- CC1(C)CC[C@]2(C(=O)O)CC[C@]3(C)C(=CCC4[C@@]5(C)C/C(=C\c6ccc(Br)cc6)[C@H](O)C(C)(C)C5CC[C@]43C)C2C1 (stereo partly drawn) [Compound 4p]: 224 to 225 °C
- CC1(C)CC[C@]2(C(=O)O)CC[C@]3(C)C(=CCC4[C@@]5(C)C/C(=C\c6ccccc6Cl)[C@H](O)C(C)(C)C5CC[C@]43C)C2C1 (stereo partly drawn) [Compound 4k]: 219 to 220 °C
- Cc1cccc(/C=C2\C[C@@]3(C)C(CC[C@]4(C)C3CC=C3C5CC(C)(C)CC[C@]5(C(=O)O)CC[C@]34C)C(C)(C)[C@H]2O)c1 (stereo partly drawn) [Compound 4c]: 128 to 129 °C
- CC1(C)CC[C@]2(C(=O)O)CC[C@]3(C)C(=CCC4[C@@]5(C)C/C(=C\c6ccc(Cl)cc6)[C@H](O)C(C)(C)C5CC[C@]43C)C2C1 (stereo partly drawn) [Compound 4m]: 196 to 197 °C
- COc1cccc(/C=C2\C[C@@]3(C)C(CC[C@]4(C)C3CC=C3C5CC(C)(C)CC[C@]5(C(=O)O)CC[C@]34C)C(C)(C)[C@H]2O)c1 (stereo partly drawn) [Compound 4f]: 200 to 201 °C
- CC1(C)CC[C@]2(C(=O)O)CC[C@]3(C)C(=CCC4[C@@]5(C)C/C(=C\c6ccccc6Br)[C@H](O)C(C)(C)C5CC[C@]43C)C2C1 (stereo partly drawn) [Compound 4n]: 234 to 235 °C
- COc1ccc(/C=C2\C[C@@]3(C)C(CC[C@]4(C)C3CC=C3C5CC(C)(C)CC[C@]5(C(=O)O)CC[C@]34C)C(C)(C)[C@H]2O)cc1 (stereo partly drawn) [Compound 4g]: 296 to 297 °C
- CC1(C)CCC2(C(=O)O)CCC3(C)C(=CCC4C5(C)CC(=Cc6cccc(Br)c6)C(O)C(C)(C)C5CCC43C)C2C1 (stereo not drawn) [Compound 4o]: 197 to 198 °C
